# Test system: 242566-281-R-J2-PDC complex spheroid viability;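 further: spheroids exposed to compounds for 7 days before readout; 100% = DMSO vehicle control wells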
# Method summary: Anticancer human tumor 242566-281-R-J2-PDC patient-derived pancreatic carcinoma cell line growth inhibition [CLK]
# Applied conditions: second compound 0.316 µM; first compound 0.0316 µM; stronger effect = lower value
Measure: viability, T/C (%)

1. CC(Nc1ccc2c(c1)OCCn1cc(N3C(=O)OCC3C(F)F)nc1-2)C(N)=O (centres undefined) + CN1CCN(c2cc(C(=O)Nc3cc4cc(-c5cnn(C)c5)ccc4cn3)ccn2)CC1
30.8
2. C=CC(=O)N1CCN(c2nc(=O)n(-c3c(C)ccnc3C(C)C)c3nc(-c4c(O)cccc4F)c(F)cc23)C(C)C1 (centres undefined) + CNC(=O)c1ccc(Nc2nc(OC3CCCC3)c3c(-c4ccc5nc(C)oc5c4)c[nH]c3n2)c(OC)c1
95.7
3. CC(=O)O[C@H]1C(=O)[C@@]2(C)[C@H]([C@H](OC(=O)c3ccccc3)[C@]3(O)C[C@H](OC(=O)[C@H](O)[C@@H](NC(=O)c4ccccc4)c4ccccc4)C(C)=C1C3(C)C)[C@]1(OC(C)=O)CO[C@@H]1C[C@@H]2O + CN1CCN(c2cc(C(=O)Nc3cc4cc(-c5cnn(C)c5)ccc4cn3)ccn2)CC1
15.9
4. Nc1ccn(C2OC(CO)C(O)C2(F)F)c(=O)n1 (centres undefined) + CNC(=O)c1ccc(Nc2nc(OC3CCCC3)c3c(-c4ccc5nc(C)oc5c4)c[nH]c3n2)c(OC)c1
78
5. CC1(C)CCC(CN2CCN(c3ccc(C(=O)NS(=O)(=O)c4ccc(NCC5CCOCC5)c([N+](=O)[O-])c4)c(Oc4cnc5[nH]ccc5c4)c3)CC2)=C(c2ccc(Cl)cc2)C1 + CN1CCN(c2cc(C(=O)Nc3cc4cc(-c5cnn(C)c5)ccc4cn3)ccn2)CC1
38.1
6. CC1(C)CCC(CN2CCN(c3ccc(C(=O)NS(=O)(=O)c4ccc(NCC5CCOCC5)c([N+](=O)[O-])c4)c(Oc4cnc5[nH]ccc5c4)c3)CC2)=C(c2ccc(Cl)cc2)C1 + CNC(=O)c1ccc(Nc2nc(OC3CCCC3)c3c(-c4ccc5nc(C)oc5c4)c[nH]c3n2)c(OC)c1
87.3
7. C#Cc1c(F)ccc2cc(O)cc(-c3ncc4c(N5CC6CCC(C5)N6)nc(OCC56CCCN5CC(F)C6)nc4c3F)c12 (centres undefined) + CNC(=O)c1ccc(Nc2nc(OC3CCCC3)c3c(-c4ccc5nc(C)oc5c4)c[nH]c3n2)c(OC)c1
81.7
8. CC(Nc1ccc2c(c1)OCCn1cc(N3C(=O)OCC3C(F)F)nc1-2)C(N)=O (centres undefined) + CNC(=O)c1ccc(Nc2nc(OC3CCCC3)c3c(-c4ccc5nc(C)oc5c4)c[nH]c3n2)c(OC)c1
82.3
9. Nc1ccccc1NC(=O)c1ccc(CNC(=O)OCc2cccnc2)cc1 + CNC(=O)c1ccc(Nc2nc(OC3CCCC3)c3c(-c4ccc5nc(C)oc5c4)c[nH]c3n2)c(OC)c1
89.6
10. CC(CO)NC(=O)c1cc(-c2ccc(Cl)cc2)nn(-c2cnn(C)c2)c1=O (centres undefined) + CNC(=O)c1ccc(Nc2nc(OC3CCCC3)c3c(-c4ccc5nc(C)oc5c4)c[nH]c3n2)c(OC)c1
96.1
11. CCc1c2c(nc3ccc(O)cc13)-c1cc3c(c(=O)n1C2)COC(=O)[C@]3(O)CC + CNC(=O)c1ccc(Nc2nc(OC3CCCC3)c3c(-c4ccc5nc(C)oc5c4)c[nH]c3n2)c(OC)c1
8.24
12. CC1COCCN1c1cc(C2(S(C)(=N)=O)CC2)nc(-c2ccnc3[nH]ccc23)n1 (centres undefined) + CN1CCN(c2cc(C(=O)Nc3cc4cc(-c5cnn(C)c5)ccc4cn3)ccn2)CC1
36.3
13. COc1ccc([C@@H](O)c2cc(-c3ncnc4cc(N5CCOCC5)ccc34)c(F)cc2Cl)nn1 + CNC(=O)c1ccc(Nc2nc(OC3CCCC3)c3c(-c4ccc5nc(C)oc5c4)c[nH]c3n2)c(OC)c1
91.7
14. O=C(c1cc(Cc2n[nH]c(=O)c3ccccc23)ccc1F)N1CCN(C(=O)C2CC2)CC1 + CNC(=O)c1ccc(Nc2nc(OC3CCCC3)c3c(-c4ccc5nc(C)oc5c4)c[nH]c3n2)c(OC)c1
92.6
15. COc1c(OCCCN2CCOCC2)ccc2c3n(c(=NC(=O)c4cnc(N)nc4)nc12)CCN3 + CN1CCN(c2cc(C(=O)Nc3cc4cc(-c5cnn(C)c5)ccc4cn3)ccn2)CC1
17.4
16. COc1cccc2c1C(=O)c1c(O)c3c(c(O)c1C2=O)CC(O)(C(=O)CO)CC3OC1CC(N)C(O)C(C)O1 (centres undefined) + CN1CCN(c2cc(C(=O)Nc3cc4cc(-c5cnn(C)c5)ccc4cn3)ccn2)CC1
26.1
17. C=CC(=O)N1CCN(c2nc(=O)n(-c3c(C)ccnc3C(C)C)c3nc(-c4c(O)cccc4F)c(F)cc23)C(C)C1 (centres undefined) + CN1CCN(c2cc(C(=O)Nc3cc4cc(-c5cnn(C)c5)ccc4cn3)ccn2)CC1
47.2
18. CCN1CCN(Cc2ccc(Nc3ncc(F)c(-c4cc(F)c5nc(C)n(C(C)C)c5c4)n3)nc2)CC1 + CNC(=O)c1ccc(Nc2nc(OC3CCCC3)c3c(-c4ccc5nc(C)oc5c4)c[nH]c3n2)c(OC)c1
79.2
19. CC(CO)NC(=O)c1cc(-c2ccc(Cl)cc2)nn(-c2cnn(C)c2)c1=O (centres undefined) + CN1CCN(c2cc(C(=O)Nc3cc4cc(-c5cnn(C)c5)ccc4cn3)ccn2)CC1
38.2
